Target: UniProt P33535
Sequence (P33535 whole entry): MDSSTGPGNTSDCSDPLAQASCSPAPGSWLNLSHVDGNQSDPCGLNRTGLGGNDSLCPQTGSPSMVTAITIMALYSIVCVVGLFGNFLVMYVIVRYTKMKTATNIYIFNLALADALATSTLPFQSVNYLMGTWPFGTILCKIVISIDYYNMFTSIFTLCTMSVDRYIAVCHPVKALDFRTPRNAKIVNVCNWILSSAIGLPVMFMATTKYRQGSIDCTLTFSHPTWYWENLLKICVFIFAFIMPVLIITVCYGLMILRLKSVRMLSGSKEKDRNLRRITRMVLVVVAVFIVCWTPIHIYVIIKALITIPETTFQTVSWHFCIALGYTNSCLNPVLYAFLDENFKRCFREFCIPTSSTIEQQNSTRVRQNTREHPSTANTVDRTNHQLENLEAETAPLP
Where a SMILES comes first, the peptide text is derived from it.
Would you mind telling me the reported Ki of each entry?

Item CC(C)[C@H](NC(=O)[C@H](CC(=O)O)NC(=O)[C@H](Cc1ccccc1)NC(=O)[C@@H](C)NC(=O)[C@@H](N)Cc1ccc(O)cc1)C(=O)N[C@H](C(=O)NCC(N)=O)C(C)C [DELTORPHIN C] ; assay system UniProt P33535; Ki reported as 3.93 µM

Bench note, UniProt P33535: N[C@@H](Cc1ccc(O)cc1)C(=O)N1Cc2ccccc2C[C@H]1C(=O)N[C@@H](Cc1ccccc1)C(=O)N[C@@H](Cc1ccccc1)C(=O)O (HELM PEPTIDE1{Y.[Tic].F.F}$$$$V2.0) , Ki reads 3.23 µM
